target.desc: D(3) dopamine receptor (Homo sapiens, UniProt P35462)
Sequence (P35462 as listed by the source): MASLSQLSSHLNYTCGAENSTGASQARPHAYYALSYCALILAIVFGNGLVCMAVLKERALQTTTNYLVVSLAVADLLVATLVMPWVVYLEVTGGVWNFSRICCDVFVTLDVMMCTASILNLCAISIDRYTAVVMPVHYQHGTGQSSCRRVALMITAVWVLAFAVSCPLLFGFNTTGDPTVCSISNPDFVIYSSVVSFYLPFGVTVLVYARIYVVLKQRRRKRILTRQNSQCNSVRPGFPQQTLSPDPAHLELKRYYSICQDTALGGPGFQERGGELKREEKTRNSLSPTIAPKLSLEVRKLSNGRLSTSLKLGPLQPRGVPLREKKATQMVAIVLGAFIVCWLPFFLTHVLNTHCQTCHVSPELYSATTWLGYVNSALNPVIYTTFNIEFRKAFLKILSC
assay.notes: Displacement of [3H]7-OH-DPAT from human Dopamine receptor D3
property: pKi
Lab note: write the figure by itself, no unit.

Look at this compound and give its reported pKi. O=C(CCCN1CCC(c2ccc(Cl)cc2)CC1)c1ccc(F)cc1
7.34

Try the compound CN(CCCC(=O)c1ccc(F)cc1)CCCC(O)c1ccc(Cl)cc1 (stereo not drawn)
6.79

Try the compound O=C(CCCN1CCC(CO)(c2ccc(Cl)cc2)CC1)c1ccc(F)cc1
6.96

Try the compound O=C(CCCN1CCC(C(O)c2ccc(Cl)cc2)CC1)c1ccc(F)cc1 (stereo not drawn)
7.11

Try the compound O=C(CCCN1CCC(CCO)(c2ccc(Cl)cc2)C1)c1ccc(F)cc1 (stereo not drawn)
7.49

Try the compound O=C(CCCN1CCC(O)(Cc2ccc(Cl)cc2)CC1)c1ccc(F)cc1
8.05

Try the compound O=C(CCCN1CCC(CO)(c2ccc(Cl)cc2)C1)c1ccc(F)cc1 (stereo not drawn)
6.78
